- Organism: Homo sapiens
- experimental protocol: Effect on VEGF-stimulated MAPK signaling pathway in HUVEC assessed as p38 MAPK phosphorylation level at 20 uM pretreated for 10 mins followed by VEGF stimulation and subsequent compound addition measured after 20 mins by Western blot analysis relative to control
The source made the active and inactive calls. No cut-off for these calls is given here.
quantity: Activity

| compound | quantity | value reported |
| --- | --- | --- |
| CC(C)(C)c1cc2n(n1)CC(c1ccccc1)N2C(=O)Nc1cccc(C(F)(F)F)c1 (configuration not stated) | Activity | 140% |
| CCOC(=O)c1cc(NC(=O)Nc2cccc(F)c2)n(CC(O)c2ccccc2)n1 (configuration not stated) | Activity | Active |
| CCOC(=O)c1cnn(CC(C)O)c1NC(=O)Nc1cccc(C(F)(F)F)c1 (configuration not stated) | Activity | Active |
| CCOC(=O)c1cc(NC(=O)Nc2cccc(C(F)(F)F)c2)n(CC(O)c2ccccc2)n1 (configuration not stated) | Activity | -61% |
| NC(=O)c1cnn2c1N(C(=O)Nc1cccc(C(F)(F)F)c1)C(c1ccccc1)C2 (configuration not stated) | Activity | 200 to 300% |
| CCOC(=O)c1cnn(CC(O)CC)c1NC(=O)Nc1cccc(C(F)(F)F)c1 (configuration not stated) | Activity | Active |
| CCOC(=O)c1cnn(CC(=O)c2ccccc2)c1NC(=O)Nc1cccc(C(F)(F)F)c1 | Activity | Active |
| CC(C)(C)c1cc(NC(=O)Nc2ccc(F)cc2)n(CC(O)c2ccccc2)n1 (configuration not stated) | Activity | -70% |
| CCOC(=O)c1cnn(CC(=O)c2ccccc2)c1NC(=O)Nc1ccc(F)cc1 | Activity | Active |
| CC(C)(C)c1cc(NC(=O)Nc2cccc(C(F)(F)F)c2)n(CC(O)c2ccccc2)n1 (configuration not stated) | Activity | Active |
| CCOC(=O)c1cnn2c1N(C(=O)Nc1cccc(C(F)(F)F)c1)C(c1ccccc1)C2 (configuration not stated) | Activity | 200 to 300% |
| CCOC(=O)c1cc(NC(=O)Nc2ccccc2F)n(CC(O)c2ccccc2)n1 (configuration not stated) | Activity | 97% |
| CCCC(O)Cn1ncc(C(=O)OCC)c1NC(=O)Nc1cccc(C(F)(F)F)c1 (configuration not stated) | Activity | 180% |
| CCOC(=O)c1cnn(CC(O)c2ccccc2)c1NC(=O)Nc1cccc(C(F)(F)F)c1 (configuration not stated) | Activity | 150% |
| CC(C)(C)c1cc(NC(=O)Nc2cccc(F)c2)n(CC(O)c2ccccc2)n1 (configuration not stated) | Activity | 199% |
| CCOC(=O)c1cnn(CC(=O)c2ccccc2)c1NC(=O)Nc1cccc(F)c1 | Activity | Active |
| CCOC(=O)c1cc2n(n1)CC(c1ccccc1)N2C(=O)Nc1cccc(C(F)(F)F)c1 (configuration not stated) | Activity | Active |
| CCOC(=O)c1cc(NC(=O)Nc2ccc(F)cc2)n(CC(O)c2ccccc2)n1 (configuration not stated) | Activity | -81% |
| CC(C)(C)c1cc2n(n1)CC(c1ccccc1)N2C(=O)Nc1ccccc1F (configuration not stated) | Activity | Active |
| CC(C)(C)c1cc2n(n1)CC(c1ccccc1)N2C(=O)Nc1cccc(F)c1 (configuration not stated) | Activity | Active |
| CC(C)(C)c1cc2n(n1)CC(c1ccccc1)N2C(=O)Nc1ccc(F)cc1 (configuration not stated) | Activity | Active |
| CC(C)(C)c1cc(NC(=O)Nc2ccccc2F)n(CC(O)c2ccccc2)n1 (configuration not stated) | Activity | -74% |
| O=C(c1cnn2c1N(C(=O)Nc1cccc(C(F)(F)F)c1)C(c1ccccc1)C2)N1CCCCC1 (configuration not stated) | Activity | 200 to 300% |
| CCOC(=O)c1cc2n(n1)CC(c1ccccc1)N2C(=O)Nc1ccccc1F (configuration not stated) | Activity | Active |
| CCOC(=O)c1cc2n(n1)CC(c1ccccc1)N2C(=O)Nc1cccc(F)c1 (configuration not stated) | Activity | Active |
| CCOC(=O)c1cnn(CC(=O)c2ccccc2)c1NC(=O)Nc1ccccc1F | Activity | Active |
| CCOC(=O)c1cc2n(n1)CC(c1ccccc1)N2C(=O)Nc1ccc(F)cc1 (configuration not stated) | Activity | Active |
